Each record here notes measured binding signal.
Molecular target: OsWRKY34 (Oryza sativa, UniProt Q0JBA9 1-250)
Sequence (Q0JBA9 entry or part of it): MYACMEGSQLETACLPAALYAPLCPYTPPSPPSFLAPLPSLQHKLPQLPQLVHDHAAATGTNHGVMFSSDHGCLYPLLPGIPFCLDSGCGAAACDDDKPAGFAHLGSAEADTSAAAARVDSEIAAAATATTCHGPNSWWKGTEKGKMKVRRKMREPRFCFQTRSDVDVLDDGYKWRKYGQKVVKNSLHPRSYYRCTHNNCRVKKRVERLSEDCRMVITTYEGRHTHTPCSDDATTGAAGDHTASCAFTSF
Experiment: protein-binding microarray (RPBM); PBS, 2% BSA, 51.3 ng/ul salmon testes DNA, 50 uM zinc acetate, 200 nM TF, 25 C, 1 h; high values mean tight binding
Conditions: protein: recombinant; tags: N-terminal polyhistidine and DsRed monomer fusion (pET32a); label: CyDye5-dUTP incorporated in the synthesized complementary strand; 3' TTTTT single-stranded linker to array surface; dsDNA, one strand shown
Whole data set: some 68,000 sequences, median “fluorescence intensity (a.u.)” near 9,100, cut for the highest 2% near 16,000. This excerpt belongs to a sample that is enriched for the highest values.
measured-attribute: binding signal

primary_sequence=GACTGATTTGTTTTTTTTTTCTCCCGGTTTTTTCGACGGACGGAGTCACCTAGTGCAG measured_attribute="binding signal" test_value="9270 fluorescence intensity (a.u.)"
primary_sequence=CCTCGTACGTGTTGGTGTTGCCAAGCCCAAGCCAGTAGTACGGAGTCACCTAGTGCAG measured_attribute="binding signal" test_value="8990 fluorescence intensity (a.u.)"
primary_sequence=TGTCTCTCTTTGACATCTTGTTTCCCATAACCTAAAGATACGGAGTCACCTAGTGCAG measured_attribute="binding signal" test_value="8260 fluorescence intensity (a.u.)"
primary_sequence=TCTCACTCTCGAGCCATCGTCTTCAGCTCGCTCATTACTGCGGAGTCACCTAGTGCAG measured_attribute="binding signal" test_value="9030 fluorescence intensity (a.u.)"
primary_sequence=CCTTGACAGATTAATCCTACGTTTTGACCCCATATGTTTTCGGAGTCACCTAGTGCAG measured_attribute="binding signal" test_value="8880 fluorescence intensity (a.u.)"
primary_sequence=AATCAGAATATTACCTTCTTGTATTTGTTCTCTGTAGGAACGGAGTCACCTAGTGCAG measured_attribute="binding signal" test_value="8870 fluorescence intensity (a.u.)"
primary_sequence=TTTGTGGGGCTCTCTCTTTGATGCTTTCTTCTCTTTAGCTCGGAGTCACCTAGTGCAG measured_attribute="binding signal" test_value="10000 fluorescence intensity (a.u.)"
primary_sequence=TCTCTCTTTCTTTCTATTTTTCTTTTCAGTCAGGTTAGTACGGAGTCACCTAGTGCAG measured_attribute="binding signal" test_value="11000 fluorescence intensity (a.u.)"
primary_sequence=GCTGGCGCCGGAGAGAGAGAGTGGGTTGGTTGTAATAAATCGGAGTCACCTAGTGCAG measured_attribute="binding signal" test_value="9290 fluorescence intensity (a.u.)"

###

Molecular target: OsWRKY34 (Oryza sativa, UniProt Q0JBA9 1-250)
Assay: protein-binding microarray (RPBM); PBS, 2% BSA, 51.3 ng/ul salmon testes DNA, 50 uM zinc acetate, 200 nM TF, 25 C, 1 h; high values mean tight binding
Conditions: protein: recombinant; tags: N-terminal polyhistidine and DsRed monomer fusion (pET32a); label: CyDye5-dUTP incorporated in the synthesized complementary strand; 3' TTTTT single-stranded linker to array surface; dsDNA, one strand shown
The full ranking holds about 68,000 sequences; the median of “fluorescence intensity (a.u.)” is about 9,100, and the highest 2% start at about 16,000. The entries come from a sample that favours the highest values as a whole.
Each record here notes measured binding signal.
measured-attribute: binding signal

primary_sequence=TTGGGGTTGGCGGGAATTAGGGTTTCGTTGGTGGGGTTTTCGGAGTCACCTAGTGCAG test_value="25900 fluorescence intensity (a.u.)"
primary_sequence=ACCTCGGAAAGTACGGGGTTCTCGTCGGCTGGGTGGGTGTCGGAGTCACCTAGTGCAG test_value="11500 fluorescence intensity (a.u.)"
primary_sequence=GGTTGGCAGCGGCGGCGGAGGTGGGGAGAGGCGGGTGGTTCGGAGTCACCTAGTGCAG test_value="13600 fluorescence intensity (a.u.)"
primary_sequence=GCGTTTTCGGCGGGGAACGCGGGGAGGCGGGTGGGGTTGACGGAGTCACCTAGTGCAG test_value="21800 fluorescence intensity (a.u.)"
primary_sequence=CTGGCTCGCTCTCTCTCTCTCTCTCGTGGTGTGGTGTGGACGGAGTCACCTAGTGCAG test_value="9310 fluorescence intensity (a.u.)"

###

Biological target: OsWRKY34 (Oryza sativa, UniProt Q0JBA9 1-250)
Assay: protein-binding microarray (RPBM); PBS, 2% BSA, 51.3 ng/ul salmon testes DNA, 50 uM zinc acetate, 200 nM TF, 25 C, 1 h; high values mean tight binding
Conditions: protein: recombinant; tags: N-terminal polyhistidine and DsRed monomer fusion (pET32a); label: CyDye5-dUTP incorporated in the synthesized complementary strand; 3' TTTTT single-stranded linker to array surface; dsDNA, one strand shown
The full ranking holds about 68,000 sequences; the median of “fluorescence intensity (a.u.)” is about 9,100, and the highest 2% start at about 16,000. The sample holds the highest values, similar sequences and a random draw of the others, so the mix is not that of the screen.
measured-attribute: binding signal

primary_sequence=TACTATTTTTTCTCGTATTCATTATTTTGTGCATTATTTTCGGAGTCACCTAGTGCAG test_value="17200 fluorescence intensity (a.u.)"
primary_sequence=TTCACTATTGGGTGTTTTTGTCTCGATTCACCTTCATCGTCGGAGTCACCTAGTGCAG test_value="8840 fluorescence intensity (a.u.)"
primary_sequence=TGCTGACTTGGCGTTGACCTGTGAAATTCTCTCGCTTCACCGGAGTCACCTAGTGCAG test_value="11500 fluorescence intensity (a.u.)"
primary_sequence=ACTATTACTTCTATTTTCTAGTATTTTTTTTTGTTTCTCTCGGAGTCACCTAGTGCAG test_value="13500 fluorescence intensity (a.u.)"
primary_sequence=TAAACTCGTCTTATCCGCATGATTGTTGACTATAGTATGTCGGAGTCACCTAGTGCAG test_value="9300 fluorescence intensity (a.u.)"
primary_sequence=ATAGTCATTTATTTTGTGCTCTCGTATTTTTTTTCTGTTTCGGAGTCACCTAGTGCAG test_value="9540 fluorescence intensity (a.u.)"
primary_sequence=TCGCGTAGGGGAGGGGTGAAATATATTTTTTATGCCGGGCCGGAGTCACCTAGTGCAG test_value="18000 fluorescence intensity (a.u.)"
primary_sequence=GGCCGAGCAGGTCTCCCGCGCCTTCGACATCCCTCTGCCACGGAGTCACCTAGTGCAG test_value="8600 fluorescence intensity (a.u.)"
primary_sequence=TGCGTGGGTCCCAACTCCGGCCGTCTTCCGCCGTTGGATCCGGAGTCACCTAGTGCAG test_value="8940 fluorescence intensity (a.u.)"
primary_sequence=TAGATCTCTTGCTTTGGGTGTTGTTTGCTCTAGGTGTTCTCGGAGTCACCTAGTGCAG test_value="8250 fluorescence intensity (a.u.)"
primary_sequence=CCGTCGATTTGGTTGGTTGGTTGATCGGCGGCGAGGAGGGCGGAGTCACCTAGTGCAG test_value="11400 fluorescence intensity (a.u.)"
primary_sequence=TTTATCGCTTTGACTGTTCTACATCTTGCCTCGCCGTGCACGGAGTCACCTAGTGCAG test_value="9040 fluorescence intensity (a.u.)"
primary_sequence=TACATTACTTCATATTTTTTTCTGTTTGTGATTTCTATTTCGGAGTCACCTAGTGCAG test_value="9740 fluorescence intensity (a.u.)"
primary_sequence=TCTAGGTTCTGTTCTATTCGGTTCTAGGTTATCATATTTTCGGAGTCACCTAGTGCAG test_value="12100 fluorescence intensity (a.u.)"
primary_sequence=GTCGTCGTCTTCGTCTCGAGTTCTTGGTTGGTTGGATCTACGGAGTCACCTAGTGCAG test_value="19400 fluorescence intensity (a.u.)"
primary_sequence=GTATTTTAAGCATATTTTTTCGTTTTTTATATTTGTAAAACGGAGTCACCTAGTGCAG test_value="11000 fluorescence intensity (a.u.)"
primary_sequence=CGTGTTGGGGTTCTCTTCCTGCTGCTTTGGCCACCTGGGACGGAGTCACCTAGTGCAG test_value="12500 fluorescence intensity (a.u.)"
primary_sequence=GATATTGGAGGTGCATCTGTTAGGGTTCGGGTTCTCTCTACGGAGTCACCTAGTGCAG test_value="16700 fluorescence intensity (a.u.)"
primary_sequence=AATTTTGTATATTCGTTTGCACGTTTTTAAAACTCCTAAACGGAGTCACCTAGTGCAG test_value="65500 fluorescence intensity (a.u.)"

###

Each record here notes measured binding signal.
Biological target: OsWRKY34 (Oryza sativa, UniProt Q0JBA9 1-250)
Assay: protein-binding microarray (RPBM); PBS, 2% BSA, 51.3 ng/ul salmon testes DNA, 50 uM zinc acetate, 200 nM TF, 25 C, 1 h; high values mean tight binding
Conditions: protein: recombinant; tags: N-terminal polyhistidine and DsRed monomer fusion (pET32a); label: CyDye5-dUTP incorporated in the synthesized complementary strand; 3' TTTTT single-stranded linker to array surface; dsDNA, one strand shown
Over roughly 68,000 sequences, “fluorescence intensity (a.u.)” has its median near 9,100; the highest 2% begin near 16,000. Only a selection was taken, and the highest values are over-represented in it overall.
measured-attribute: binding signal

primary_sequence=ATTCTTCATTCTTTTTGTGTGTGTTTCAGTGTGTTTGTTTCGGAGTCACCTAGTGCAG measured_attribute="binding signal" test_value="15800 fluorescence intensity (a.u.)"
primary_sequence=TTGAATTTTCAGTTTTCTTGTGCGTGTTTCCTTGTCATTTCGGAGTCACCTAGTGCAG measured_attribute="binding signal" test_value="9140 fluorescence intensity (a.u.)"
primary_sequence=ACAAATGGTCAAACGTTGGTCGAAAAGTCAACGGCGTCATCGGAGTCACCTAGTGCAG measured_attribute="binding signal" test_value="13700 fluorescence intensity (a.u.)"
primary_sequence=ATAAAACAAATGATCAAACGTTGAATAAAAAGTCAACGGCCGGAGTCACCTAGTGCAG measured_attribute="binding signal" test_value="11100 fluorescence intensity (a.u.)"
primary_sequence=TTTCCGTACTAAATTTTGTTCATTCGTTTTATTTATTTTTCGGAGTCACCTAGTGCAG measured_attribute="binding signal" test_value="17100 fluorescence intensity (a.u.)"
